Target: Polyketide synthase Pks13 (Mycobacterium tuberculosis (strain ATCC 25618 / H37Rv)) (UniProt I6X8D2)
Sequence (I6X8D2 whole entry): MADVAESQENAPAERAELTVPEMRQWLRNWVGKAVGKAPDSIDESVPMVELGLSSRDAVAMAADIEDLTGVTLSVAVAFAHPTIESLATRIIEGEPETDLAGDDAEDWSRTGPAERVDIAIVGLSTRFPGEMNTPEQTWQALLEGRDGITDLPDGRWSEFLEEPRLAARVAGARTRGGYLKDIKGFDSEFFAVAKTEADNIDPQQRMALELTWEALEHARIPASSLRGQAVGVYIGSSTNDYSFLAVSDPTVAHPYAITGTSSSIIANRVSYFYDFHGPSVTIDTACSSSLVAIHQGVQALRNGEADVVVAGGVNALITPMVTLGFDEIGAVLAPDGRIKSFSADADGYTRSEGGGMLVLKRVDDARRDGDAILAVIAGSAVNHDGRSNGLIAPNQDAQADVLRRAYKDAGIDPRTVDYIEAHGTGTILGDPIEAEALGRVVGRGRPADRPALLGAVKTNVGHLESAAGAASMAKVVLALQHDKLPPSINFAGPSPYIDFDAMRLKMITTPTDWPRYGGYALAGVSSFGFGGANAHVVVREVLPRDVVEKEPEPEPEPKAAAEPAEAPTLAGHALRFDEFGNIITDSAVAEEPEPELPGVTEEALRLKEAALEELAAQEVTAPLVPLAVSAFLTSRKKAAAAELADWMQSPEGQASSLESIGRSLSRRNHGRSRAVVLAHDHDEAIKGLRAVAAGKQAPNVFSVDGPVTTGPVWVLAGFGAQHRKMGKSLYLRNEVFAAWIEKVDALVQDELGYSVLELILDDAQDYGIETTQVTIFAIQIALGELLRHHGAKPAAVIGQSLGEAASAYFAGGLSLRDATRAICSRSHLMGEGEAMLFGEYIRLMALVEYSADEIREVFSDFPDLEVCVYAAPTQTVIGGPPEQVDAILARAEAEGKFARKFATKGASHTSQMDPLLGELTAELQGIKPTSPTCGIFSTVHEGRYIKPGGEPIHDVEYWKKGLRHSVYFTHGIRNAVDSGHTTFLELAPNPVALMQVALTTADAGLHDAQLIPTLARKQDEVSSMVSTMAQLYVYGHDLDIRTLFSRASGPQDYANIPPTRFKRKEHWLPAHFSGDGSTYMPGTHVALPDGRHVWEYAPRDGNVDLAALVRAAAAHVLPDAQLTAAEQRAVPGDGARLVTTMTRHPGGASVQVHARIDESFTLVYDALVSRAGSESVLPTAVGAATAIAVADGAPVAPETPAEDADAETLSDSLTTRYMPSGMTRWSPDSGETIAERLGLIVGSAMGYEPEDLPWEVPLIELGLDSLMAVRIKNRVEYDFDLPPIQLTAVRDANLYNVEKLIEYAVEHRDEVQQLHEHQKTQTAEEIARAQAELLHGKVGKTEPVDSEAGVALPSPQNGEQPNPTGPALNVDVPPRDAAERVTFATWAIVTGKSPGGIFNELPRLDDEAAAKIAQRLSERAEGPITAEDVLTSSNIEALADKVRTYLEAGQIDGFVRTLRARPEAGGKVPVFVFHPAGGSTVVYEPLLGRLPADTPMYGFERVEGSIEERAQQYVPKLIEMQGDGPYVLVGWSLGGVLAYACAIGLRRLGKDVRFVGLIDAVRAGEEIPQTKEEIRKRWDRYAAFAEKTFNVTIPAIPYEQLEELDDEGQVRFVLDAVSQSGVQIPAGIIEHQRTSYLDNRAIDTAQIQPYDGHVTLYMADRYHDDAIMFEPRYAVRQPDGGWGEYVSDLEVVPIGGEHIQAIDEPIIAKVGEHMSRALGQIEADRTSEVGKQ
Assay: Mycobacterium tuberculosis Polyketide synthase 13 Thioesterase (PKS13)
Format: functional
Parameters: scale not given: in the data most compounds retested in dose-response had high values
Details: 30 µM
The whole screen tested about 67,000 compounds, of which about 300 (0.45%) showed an effect of 50% or more. Shown is part of a subset that was picked to be rich in strong results.
Some compounds, each annotated with its measured Percent Effect.
ASSAY ENDPOINT: Percent Effect

compound="CN(C)c1ncc2c(n1)C1(CCN(Cc3cccnc3)C1)COC2 (stereo unspecified)" assay_endpoint="Percent Effect" result=-30.2%
compound=CN1C[C@@H]2CN(C(=O)NCc3ccccc3)CCC[C@]2(C(=O)O)C1 assay_endpoint="Percent Effect" result=-22.8%
compound=COc1cccc(CN2CCC3(CC2)CCN(c2ncc(C)cn2)C3)c1 assay_endpoint="Percent Effect" result=-24.2%
compound=CCC(CC)CN1C[C@@H]2OCCN(Cc3cnn(C)c3)[C@@H]2C1 assay_endpoint="Percent Effect" result=-3.42%
compound=O=C(O)[C@]12CCCN(Cc3cccnc3)[C@@H]1CCN(c1cnccn1)C2 assay_endpoint="Percent Effect" result=10.4%
compound=NC(=O)c1cc(C2CC2)nc2ccc(F)cc12 assay_endpoint="Percent Effect" result=87.8%
compound=O=C1N(C2CCCCC2)C[C@H]2CN(C3CCC3)CCN12 assay_endpoint="Percent Effect" result=5.32%
compound=COc1cccc(CN2CCC3(CCN(c4ncc(C)cn4)CC3)C2)c1 assay_endpoint="Percent Effect" result=66.7%
compound="COc1cccc(CN2CCC3(COCc4cnc(N(C)C)nc43)C2)c1 (stereo unspecified)" assay_endpoint="Percent Effect" result=111%
compound="NC(=O)C1CCCN1C(=O)c1cc(C2CC2)nc2ccc(F)cc12 (stereo unspecified)" assay_endpoint="Percent Effect" result=-9.51%
compound=COc1ccc2nc(C3CC3)cc(C(=O)NCCc3nnc[nH]3)c2c1 assay_endpoint="Percent Effect" result=-11.9%

====

Target: Polyketide synthase Pks13 (Mycobacterium tuberculosis (strain ATCC 25618 / H37Rv)) (UniProt I6X8D2)
Experiment: Mycobacterium tuberculosis Polyketide synthase 13 Thioesterase (PKS13)
Assay type: functional
Set-up: scale not given: in the data most compounds retested in dose-response had high values
Details: 30 µM
In all, about 67,000 compounds went through this assay and about 300 (0.45%) showed an effect of 50% or more. Many of the other results were omitted from the sample, so strong results are more common in it than they were.
Some compounds, each annotated with its measured Percent Effect.
ASSAY ENDPOINT: Percent Effect (%)

compound=CCOCc1ccc(CNc2cncc(-n3cccn3)n2)cc1 measured_number=-10.5
compound=COC(=O)CNC(=O)c1nc(-c2ccccc2OC)c2cnccn12 measured_number=118
compound=Cc1cnc(N2C[C@@H]3CCN(CC4CC4)C(=O)[C@H]3C2)nc1 measured_number=-1.64
compound=CCN(CC)C(=O)c1ccc(CNc2cncc(-n3cccn3)n2)cc1 measured_number=-7.79
compound=CC[C@H](C)[C@H](N)C(=O)Nc1nc(-c2cnc(N(C)CCO)nc2)cs1 measured_number=27.2
compound=CCOc1cccc(CNc2cncc(-n3cccn3)n2)c1 measured_number=-63.1
compound=O=C(c1ccc(F)cc1)N1C[C@@H]2CN(c3ncccn3)C[C@@H]2C1 measured_number=-16.8
compound="COCCNc1nc2c(c(NCC3CCOC3)n1)CCNCC2 (centres undefined)" measured_number=89.6
compound=COC(=O)Nc1ccc(CNc2cncc(-n3cccn3)n2)cc1 measured_number=25.1
compound=COC(=O)CNC(=O)c1scnc1C measured_number=-29.3
compound=CN(CC(N)=O)C(=O)c1cc(Cl)c(Cl)n1C measured_number=-6.47
compound=CCOCCOCc1cccc(CNc2cncc(-n3cccn3)n2)c1 measured_number=53.8
compound=Cc1nc(-c2ccc(Cl)s2)sc1C(=O)NCCS(N)(=O)=O measured_number=54
compound=CN(C)c1ccc(CNc2cncc(-n3cccn3)n2)cc1 measured_number=27.6
compound=COc1ccccc1-c1nc(C(=O)N(C)C)n2ccncc12 measured_number=11.7
compound=COCCN1CC(=O)N2CC[C@@H](O)C[C@H]2C1=O measured_number=7.83
compound=CC(=O)NCCNC(=O)c1sc(-c2ccc(C)cc2C)nc1C measured_number=-6.1
compound=Cc1nc(-c2ccc(Cl)s2)sc1C(=O)N(C)CC(N)=O measured_number=88.9
compound=CC[C@H](C)[C@H](N)C(=O)Nc1nc(-c2cnc(N(C)C)nc2)cs1 measured_number=146
compound=COCc1ccc(CNc2cncc(-n3cccn3)n2)cc1 measured_number=52.2
compound=CC(=O)NCCNC(=O)c1sc(-c2ccc(Cl)s2)nc1C measured_number=33.9
compound=c1ccc(CO[C@@H]2C[C@H]3CN(c4ncccn4)CCN3C2)nc1 measured_number=-22
compound=COC(=O)CNC(=O)Cn1ccc2cccc(OC)c21 measured_number=-29.2
compound=CN(CC(N)=O)C(=O)c1cnc(-c2ccc(Cl)s2)s1 measured_number=-171

====

Molecular target: Polyketide synthase Pks13 (Mycobacterium tuberculosis (strain ATCC 25618 / H37Rv)) (UniProt I6X8D2)
Assay: Mycobacterium tuberculosis Polyketide synthase 13 Thioesterase (PKS13)
Assay type: functional
Set-up: scale not given: in the data most compounds retested in dose-response had high values
Details: 30 µM
Out of some 67,000 compounds screened, about 300 (0.45%) showed an effect of 50% or more. The entries come from a sample that favours strong results as a whole.
Some compounds, each annotated with its measured Percent Effect.
ASSAY ENDPOINT: Percent Effect (%)

entry_smiles=Cc1ccc(Cl)cc1C(=O)N1CCC2(CC1)c1ccccc1[C@@H](N)[C@@H]2O measured_number=-27.1
entry_smiles=COc1ccc(CN2CC[C@@H]3CN(S(C)(=O)=O)CCO[C@@H]3C2)cc1 measured_number=-17.7
entry_smiles=CC[C@H](C)[C@H](N)C(=O)Nc1nc(-c2cnc(N3CCOCC3)nc2)cs1 measured_number=36.7
entry_smiles=CCC1(CC)Cc2ccccc2-c2nc(NCCO)[nH]c(=O)c21 measured_number=-180
entry_smiles=Cc1ccc(C(=O)N2CCC3(CC2)c2ccccc2[C@@H](N)[C@@H]3O)c(=O)[nH]1 measured_number=70
entry_smiles=O=C(O)c1ccc2ccc(N3CCN(CC4CC4)CC3)n2c1 measured_number=9.49
entry_smiles=CN1CCN(C(=O)N2C[C@H]3CC[C@@H]2CN(Cc2ccccc2)C3)CC1 measured_number=7.3
entry_smiles=Cn1cncc1-c1nnc([C@H]2CCN(Cc3cccnc3)C2)o1 measured_number=-26
entry_smiles=CCC1(CC)Cc2ccccc2-c2nc(NCCCO)[nH]c(=O)c21 measured_number=88.8
entry_smiles=N[C@@H]1c2ccccc2C2(CCN(C(=O)c3ccccc3O)CC2)[C@H]1O measured_number=1.94

====

Biological target: Polyketide synthase Pks13 (Mycobacterium tuberculosis (strain ATCC 25618 / H37Rv)) (UniProt I6X8D2)
Assay: Mycobacterium tuberculosis Polyketide synthase 13 Thioesterase (PKS13)
Type: functional
Parameters: scale not given: in the data most compounds retested in dose-response had high values
Settings: 30 µM
In all, about 67,000 compounds went through this assay and about 300 (0.45%) showed an effect of 50% or more. What follows is part of a selection rich in strong results, with near analogues and random picks from the rest.
Some compounds, each annotated with its measured Percent Effect.
ASSAY ENDPOINT: Percent Effect (%)

compound=O=C(CSc1ccccn1)N1CCN(CCO)[C@@H]2CS(=O)(=O)C[C@@H]21 assay_endpoint="Percent Effect" unit_label=% measured_number=0.423
compound=CC(C)NC(=O)[C@@H]1CN(C(=O)C2CC2)C[C@]12Cc1ccccc1C(=O)N2 assay_endpoint="Percent Effect" unit_label=% measured_number=52.6
compound=CN(C)[C@H]1C[C@@H](Cc2cc(CO)on2)C1(C)C assay_endpoint="Percent Effect" unit_label=% measured_number=-32.8
compound=CCS(=O)(=O)NC[C@]12COC[C@H]1CN(Cc1cc(C)on1)C2 assay_endpoint="Percent Effect" unit_label=% measured_number=-29.9
compound="O=C(O)C1c2nc[nH]c2CCN1Cc1cc(-c2ccccc2)no1 (stereo unspecified)" assay_endpoint="Percent Effect" unit_label=% measured_number=-11.2
compound=Cc1n[nH]c(SCC(=O)N2C[C@H]3CC[C@@H]2CN(c2ncccn2)C3)n1 assay_endpoint="Percent Effect" unit_label=% measured_number=53.5
compound=CNC(=O)c1cc2c(nc1NC(C)C)CCN(C(=O)NC(C)C)CC2 assay_endpoint="Percent Effect" unit_label=% measured_number=29.7
compound=CS(=O)(=O)N1CCN2C(=O)N(C3CCCCC3)C[C@H]2C1 assay_endpoint="Percent Effect" unit_label=% measured_number=3.48
compound=Cc1nnsc1CN1C[C@H]2CC[C@@H]1CN(Cc1ccccn1)C2 assay_endpoint="Percent Effect" unit_label=% measured_number=2.49
compound=CO[C@@H]1CCN(c2ncc(F)cn2)[C@@H]2CN(CC3CC3)C[C@@H]21 assay_endpoint="Percent Effect" unit_label=% measured_number=-32.1
compound=CN(C)C[C@H]1OC[C@@H]2CCN(C(=O)c3ccc[nH]3)C[C@@H]21 assay_endpoint="Percent Effect" unit_label=% measured_number=11.4
compound=CCS(=O)(=O)N1C[C@@H](C(=O)NC(C)C)[C@@]2(Cc3ccccc3C(=O)N2)C1 assay_endpoint="Percent Effect" unit_label=% measured_number=9.59
compound=O=C(CSCC1CC1)N1C[C@@H]2CC[C@H](C1)N(Cc1ccccn1)C2=O assay_endpoint="Percent Effect" unit_label=% measured_number=-35
compound=CN(C)c1nccc(N2CCO[C@H]3CN(Cc4ccco4)C[C@H]32)n1 assay_endpoint="Percent Effect" unit_label=% measured_number=-3.24
compound=CC(C)CNC(=O)N1CC[C@@H]2CN(Cc3cccnc3)S(=O)(=O)[C@@H]2CC1 assay_endpoint="Percent Effect" unit_label=% measured_number=-16.3
compound=CCOCCC(=O)N1C[C@H]2CC[C@@H]1CN(c1ncccn1)C2 assay_endpoint="Percent Effect" unit_label=% measured_number=-26.3
compound="O=C(O)C1c2nc[nH]c2CCN1Cc1ccc(-c2ccccc2)s1 (stereo unspecified)" assay_endpoint="Percent Effect" unit_label=% measured_number=-9.34
compound="O=C(O)C1c2nc[nH]c2CCN1Cc1ccccc1-c1ccccc1 (stereo unspecified)" assay_endpoint="Percent Effect" unit_label=% measured_number=62.3
compound=c1ccc(NC[C@@H]2CCC[C@@H]3CN(Cc4cccnc4)C[C@@H]32)nc1 assay_endpoint="Percent Effect" unit_label=% measured_number=-17.4
compound=O=C1CNc2ncnc(N3CCN(Cc4ccccc4)CC3)c2N1 assay_endpoint="Percent Effect" unit_label=% measured_number=-2.51
compound=Cc1ccc(CN2CC[C@@]3(O)CCN(S(=O)(=O)N(C)C)C[C@H]3C2)cc1C assay_endpoint="Percent Effect" unit_label=% measured_number=-28.6
